measurement notes: Cytotoxicity against human HepG2 cells after 24 to 48 hrs by WST-1 assay
Format: cell-based
measured parameter: CC50

Form field: reported CC50 of Nc1ncnc2c1ncn2[C@@H]1O[C@H](COP(=O)(O)OCCCCC[C@@H]2SC[C@@H]3NC(=O)N[C@@H]32)[C@@H](O)[C@H]1O
> 200 µg/mL

====

measurement notes: Inhibition of Mycobacterium tuberculosis recombinant BPL using 3H-biotin as substrate after 10 mins by liquid scintillation counting analysis
assay conditions: read-out: Ki(app)
measured parameter: Ki (nM)
Expressed in nM, but write only the number.

Form field: reported Ki of Nc1ncnc2c1ncn2[C@@H]1O[C@H](COP(=O)(O)OCCCCC[C@@H]2SC[C@@H]3NC(=O)N[C@@H]32)[C@@H](O)[C@H]1O
52
